Origin of values: PubChem BioAssay (EPA / NIEHS)

# Test description: BSK_3C_uPAR: BioMAP Diversity Plus: 3C Assay for Urokinase-type plasminogen activator receptor (uPAR) Biomarker Activity (AID 2282998)
# Conditions: BioMAP 3C HUVEC, uPAR biomarker ELISA; actives raise or lower the signal
Calls of active or inactive are those of the source. The calls were made as follows: active = hit-call score of the fitted dose curve at least 0.9, where 1 is the maximum; inactive = score below 0.9.
Select the matching outcome among y = active, n = inactive

Examples from the recorded data:
> print(dat)
                           structure.string  cat
1                     CCCCOC(=O)c1ccc(O)cc1    n
2                                 Oc1ccccc1    n
3                          c1ccc2n[nH]nc2c1    n
4  Cc1cc(F)ccc1-c1cc(N2CC[C@@H](O)[C@H]2CO)ncc1N(C)C(=O)C(C)(C)c1cc(C(F)(F)F)cc(C(F)(F)F)c1    y
5       CC/C(=C(/CC)c1ccc(O)cc1)c1ccc(O)cc1    y

Query: # lookup: test call for O=C=NCCCCCCN=C=O
Result: n

Query: # lookup: test call for CCCCCCCCOC(=O)c1cc(O)c(O)c(O)c1
Result: y

---

# Test description: CPHEA_Stoker_NIS_Cytotoxicity: Cytotoxicity Assessment for CPHEA's Radioactive Iodide Uptake (RAIU) Assay for Sodium/Iodide Symporter (NIS) Inhibition, Stoker and Laws Labs (AID 2283897);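 as to AC50: active means loss of ATP signal versus DMSO meaning cytotoxicity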
Activity calls are given as the source filed them. Rule for the calls: active = hit-call score of the fitted dose curve at least 0.9, where 1 is the maximum; inconclusive = response in the unintended direction; inactive = score below 0.9.
Value kind: AC50

Known AC50 results, listed for orientation:
> print(dat)
                                   compound   reported.result
1                     CCCCOC(=O)c1ccc(O)cc1          inactive
2       CC/C(=C(/CC)c1ccc(O)cc1)c1ccc(O)cc1  9.92 µM (active)
3  CC(C)(c1cc(Br)c(O)c(Br)c1)c1cc(Br)c(O)c(Br)c1  13.6 µM (active)
4  Cc1cc2c(cc1C(F)(F)F)N(C(=O)Nc1ccc(Oc3cccnc3C)nc1)CC2  8.93 µM (active)
5  CCCCOC(=O)CC(CC(=O)OCCCC)(OC(C)=O)C(=O)OCCCC          inactive
6           CCCCCCCCOC(=O)c1cc(O)c(O)c(O)c1          inactive
7  COc1cc(C(=O)NC2CCN(C)CC2)ccc1Nc1ncc2c(n1)N(C1CCCC1)CC(F)(F)C(=O)N2C          inactive
8  CN1C(=O)N(c2ccccc2Br)Cc2cnc(Nc3ccc4c(c3)OCC(CO)O4)nc21 (stereo not given)          inactive

Kindly review the next compound as well.
Looking up CCN(Cc1cccnc1)C(=O)c1cccc(Cl)c1[C@]1(C)C(=O)N(Cc2ccc(OC)cc2OC)c2ccc(Cl)cc21 , I see its AC50 listed as inactive

---

# Read-out: ABC Transporter (ABCB1), ABCB1 (gene 5243)
# Test description: LTEA_HepaRG_ABCB1: Life Technologies and Expression Analysis (LTEA) Assay for ABC Transporter (ABCB1) using HepaRG (AID 2283460)
# Conditions: mRNA level, 48 h; actives raise or lower the signal
The source made the active and inactive calls. Rule for the calls: active = hit-call score of the fitted dose curve at least 0.9, where 1 is the maximum; inactive = score below 0.9.
Select the matching outcome among True for active, False for inactive

Examples from the recorded data:
> print(dat)
                                    molecule    cat
 1               CCO[Si](CCCNC(N)=O)(OCC)OCC  False
 2                           Oc1ccc2ccccc2c1  False
 3  CN(C)C(=O)C1(N2CCCCC2)CCN(CC[C@@]2(c3ccc(Cl)c(Cl)c3)CN(C(=O)c3ccccc3)CCO2)CC1   True
 4                  CN1C(=O)CC[C@H]1c1cccnc1  False
 5                              CCCCCCCCCCCO  False
 6       O=C(Nc1ccc(Cl)cc1)Nc1ccc(Cl)c(Cl)c1   True
 7  CC(C)(c1cc(Br)c(O)c(Br)c1)c1cc(Br)c(O)c(Br)c1  False
 8  CCCCOC(=O)CC(CC(=O)OCCCC)(OC(C)=O)C(=O)OCCCC  False
 9  COc1cc(C(=O)NC2CCN(C)CC2)ccc1Nc1ncc2c(n1)N(C1CCCC1)CC(F)(F)C(=O)N2C   True
10   COCC(C)OCC(C)OCC(C)O (stereo not drawn)  False

Query: # lookup: test call for CCCCCCCCCC(=O)O
Result: False

Query: # lookup: test call for Cc1ccc2oc(CN(Cc3ccccc3)C(=O)Nc3c(F)cc(F)cc3F)c(-c3ccc(Cl)cc3)c2c1
Result: True

Query: # lookup: test call for CN(C)c1ccc(C(=C2C=CC(=[N+](C)C)C=C2)c2ccc(N(C)C)cc2)cc1
Result: True

Query: # lookup: test call for CC(C)(C)c1cc(/C=C2\SC(N)=NC2=O)cc(C(C)(C)C)c1O
Result: False

Query: # lookup: test call for Cc1c2ccccc2c(C)c2c1ccc1ccccc12
Result: False

Query: # lookup: test call for Cc1cn([C@H]2C[C@H](N=[N+]=[N-])[C@@H](CO)O2)c(=O)[nH]c1=O
Result: False

Query: # lookup: test call for OCCO
Result: False

Query: # lookup: test call for CCN(Cc1cccc(S(=O)(=O)O)c1)c1ccc(C(=C2C=CC(=[N+](CC)Cc3cccc(S(=O)(=O)O)c3)C=C2)c2ccccc2S(=O)(=O)[O-])cc1
Result: False

Query: # lookup: test call for CCCCCCCCCCCCO
Result: False

Query: # lookup: test call for C[C@]12CC[C@@H]3c4ccc(O)cc4CC[C@H]3[C@@H]1CC[C@H]2O
Result: False

Query: # lookup: test call for CCCCCCCCOc1ccc(C(=O)c2ccccc2)c(O)c1
Result: False

Query: # lookup: test call for O=C1CCC(C2CCCCC2)CC1
Result: False

Query: # lookup: test call for Cc1occc1C(=O)Nc1ccc(C(=O)N2CCC(F)(F)/C(=C\C(=O)N3CCC(N4CCCCC4)CC3)c3ccccc32)cc1
Result: False

---

# Test description: BSK_SAg_PBMCCytotoxicity: PBMC Cytotoxicity Assessment in the BioMAP Diversity Plus: SAg Assay (AID 2283093);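 also: PBMC viability measured as Alamar Blue reduction fluorescence at 546/580 nm; fitted both ways against DMSO so a hit may be loss or gain of signal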
# Conditions: primary human HUVEC with PBMC
Active and inactive are the calls of the source. The calls were made as follows: active = hit-call score of the fitted dose curve at least 0.9, where 1 is the maximum; inactive = score below 0.9.
Select the matching outcome among active, inactive

Examples from the recorded data:
> print(dat)
                         compound       cat
1                c1ccc2n[nH]nc2c1  inactive
2                       O=CCCCC=O    active
3  Cc1c2ccccc2c(C)c2c1ccc1ccccc12    active

Query: # lookup: test call for Cc1ccc(C(C)C)cc1
Result: inactive

Query: # lookup: test call for CC(O)CC(C)(C)O (configuration not stated)
Result: inactive

Query: # lookup: test call for COc1cc(C(=O)NC2CCN(C)CC2)ccc1Nc1ncc2c(n1)N(C1CCCC1)CC(F)(F)C(=O)N2C
Result: active

---

# Assayed system: human Phosphodiesterase 5 (PDE5), PDE5A (gene 8654) (UniProt O76074)
# Test description: NVS_ENZ_hPDE5: NovaScreen (NVS) Enzymatic Assay for human Phosphodiesterase 5 (PDE5) (AID 2283194)
Inconclusive results are not listed. Calls of active or inactive are those of the source. The calls were made as follows: active = hit-call score of the fitted dose curve at least 0.9, where 1 is the maximum; inconclusive = response in the unintended direction; inactive = score below 0.9.
Select the matching outcome among 1 (yes) = active, 0 (no) = inactive

Examples from the recorded data:
> print(dat)
                           structure.string      cat
1  COc1cc(C(=O)NC2CCN(C)CC2)ccc1Nc1ncc2c(n1)N(C1CCCC1)CC(F)(F)C(=O)N2C  1 (yes)
2       CC/C(=C(/CC)c1ccc(O)cc1)c1ccc(O)cc1   0 (no)
3            Clc1cc(Cl)c2c(c1)N=C1CCCCCN1C2   0 (no)

Consider now this further compound.
Query: # lookup: test call for CCN(CC)C(=O)c1cc(S(=O)(=O)Cc2ccccc2)c(N2CCC(c3ccccc3)CC2)cc1N(CC)CCN(C)C
Result: 0 (no)

---

# Assayed system: human Histamine 1 Receptor (H1), HRH1 (gene 3269)
# Test description: NVS_GPCR_hH1: NovaScreen (NVS) G Protein-Coupled Receptor Assay for human Histamine 1 Receptor (H1) (AID 2283268)
Results filed as inconclusive are left out. Calls of active or inactive are those of the source. Rule for the calls: active = hit-call score of the fitted dose curve at least 0.9, where 1 is the maximum; inconclusive = response in the unintended direction; inactive = score below 0.9.
Below: a set of entries, each annotated with reported AC50.

Known AC50 results, listed for orientation:
> print(dat)
                           structure.string  value.kind   reported.result
1  COc1ccc2cc(S(=O)(=O)N[C@H](CC(=O)N[C@H](Cc3ccc(CN4[C@H](C)CCC[C@@H]4C)cc3)C(=O)N(C)C(C)C)c3ccc4c(c3)OCO4)ccc2c1        AC50  17.8 µM (active)
2            Clc1cc(Cl)c2c(c1)N=C1CCCCCN1C2        AC50   4.5 µM (active)
3  COc1cc(C(=O)NC2CCN(C)CC2)ccc1Nc1ncc2c(n1)N(C1CCCC1)CC(F)(F)C(=O)N2C        AC50  2.74 µM (active)
4           CCCCCCCCOC(=O)c1cc(O)c(O)c(O)c1        AC50  42.8 µM (active)
5  CN(C)C(=O)C1(N2CCCCC2)CCN(CC[C@@]2(c3ccc(Cl)c(Cl)c3)CN(C(=O)c3ccccc3)CCO2)CC1        AC50  20.3 µM (active)

Looking up c1ccc(C[n+]2cccc3ccccc32)cc1 , I see its AC50 listed as 13 µM (active)

Looking up CCCCCCCCCCCC[N+](C)(C)C , I see its AC50 listed as 15.7 µM (active)

Looking up O=C1c2ccccc2C(=O)N1CCc1noc(-c2ccc(CN3CCCCCC3)s2)n1 , I see its AC50 listed as 7.44 µM (active)

Looking up NCc1cccc(C2CCN(C(=O)c3ccc(C#Cc4ccccc4F)o3)CC2)c1 , I see its AC50 listed as 22.1 µM (active)
